target: benzodiazepine receptor sites (GABAA receptor complex); test: Displacement of ^3 H-flunitrazepam (^3 H-FNM) binding to rat cerebral cortex membranes; conditions: ^3 H-FNM 1 nM, 40 min at 2° C., pH 7.1, non-specific binding with clonazepam 1 μM, read-out: IC50 (concentration of the test substance which inhibits the specific binding of ^3 H-FNM by 50%)
recorded-metric: pIC50
Answers are plain numbers, as −log10 of the molar value.

Cc1nccn1-c1cccc(-n2cnc3cc(-c4ccoc4)ccc32)c1 | 9.40

API: the following record is the query input.
I'd like to know its pIC50. The molecule in question is c1cc(-n2ccnc2)cc(-n2cnc3cc(-c4ccoc4)ccc32)c1
9.40
